Details: in isopropanol, 318.1 K
Measurement type: solubility (mole fraction)
No unit in the answer, please; the number alone is enough.

Give me measured solubility (mole fraction), please, for this compound: Clc1cc(Cl)c(OCCBr)c(Cl)c1
0.0245

---

Conditions: in n-heptane, 308.2 K
Measurement type: solubility (mole fraction)
No unit in the answer, please; the number alone is enough.

Give me measured solubility (mole fraction), please, for this molecule: Clc1cc(Cl)c(OCCBr)c(Cl)c1
0.123

---

Conditions: in methanol, 283.1 K
Measurement type: solubility (mole fraction)
No unit in the answer, please; the number alone is enough.

Give me measured solubility (mole fraction), please, for this molecule: Clc1cc(Cl)c(OCCBr)c(Cl)c1
0.00448

---

Conditions: in isopropanol, 323.2 K
Measurement type: solubility (mole fraction)

Give me measured solubility (mole fraction), please, for this molecule: Clc1cc(Cl)c(OCCBr)c(Cl)c1
0.0294

---

Conditions: in methanol, 318.2 K
Measurement type: solubility (mole fraction)
No unit in the answer, please; the number alone is enough.

Give me measured solubility (mole fraction), please, for this compound: Clc1cc(Cl)c(OCCBr)c(Cl)c1
0.0223

---

Conditions: in acetone, 318.2 K
Measurement type: solubility (mole fraction)
No unit in the answer, please; the number alone is enough.

Give me measured solubility (mole fraction), please, for this compound: Clc1cc(Cl)c(OCCBr)c(Cl)c1
0.226

---

Conditions: in ethanol, 313.2 K
Measurement type: solubility (mole fraction)
No unit in the answer, please; the number alone is enough.

Give me measured solubility (mole fraction), please, for this molecule: Clc1cc(Cl)c(OCCBr)c(Cl)c1
0.0149

---

Details: in methanol, 313.2 K
Measurement type: solubility (mole fraction)
No unit in the answer, please; the number alone is enough.

Give me measured solubility (mole fraction), please, for this compound: Clc1cc(Cl)c(OCCBr)c(Cl)c1
0.0177
